From: ChEMBL document CHEMBL1148014

Parameter 'readout' = log10(IC50); parameter 'system' = Leukotriene B4 receptor (Homo sapiens, UniProt Q9NPC1+Q15722).
Hello, just confirming the data are log10 of IC50 with units of nM.

Value (log10(IC50), Leukotriene B4 receptor (Homo sapiens, UniProt Q9NPC1+Q15722)) for record CN(CCc1ccccc1)C(=O)Cc1ccc(OCCCCOc2ccc(CC(=O)O)cc2)cc1 = 3.67

Value (log10(IC50), Leukotriene B4 receptor (Homo sapiens, UniProt Q9NPC1+Q15722)) for record CN(CCc1ccccc1)C(=O)Cc1ccc(OCCCOc2ccc(CC(=O)O)cc2)cc1 = 4.26

----------
# CONDITION DESCRIPTION: octanol/water
# Description: Lipophilicity, log K of the compound
MEASUREMENT LABEL: log K
Please give only the number in your answer, with no unit.

Please review the entries below; each comes with its answer.
                                 mol_smiles  measurement_label  result_value
0  COc1cc(CC(=O)O)ccc1OCCCCOc1ccc(CC(=O)N(C)CCc2ccc(Br)cc2)cc1              log K         0.354
1  COc1cc(CC(=O)O)ccc1OCCCOc1ccc(CC(=O)N(C)CCc2ccc(Br)cc2)cc1              log K         0.193
2  COc1cc(CC(=O)O)ccc1OCCCCOc1ccc(CC(=O)N(C)CCc2ccccc2)cc1              log K          0.12
3  CN(CCc1ccccc1)C(=O)Cc1ccc(OCCCCOc2ccc(CC(=O)O)cc2)cc1              log K         0.287

# log K of CN(CCc1ccccc1)C(=O)Cc1ccc(OCCCOc2ccc(CC(=O)O)cc2Cl)cc1 = 0.253

# log K of CN(CCc1ccccc1)C(=O)Cc1ccc(OCCCCOc2ccc(CC(=O)O)cc2Cl)cc1 = 0.364

# log K of COc1cc(CC(=O)O)ccc1OCCCCOc1ccc(CC(=O)NCCc2ccccc2)cc1 = -0.079

# log K of Cc1cccc(CCN(C)C(=O)Cc2ccc(OCCCCOc3ccc(CC(=O)O)cc3)cc2)c1 = 0.47

# log K of CN(CCc1ccccc1)C(=O)Cc1ccc(OCCCOc2ccc(CC(=O)O)cc2)cc1 = 0.166

# log K of O=C(O)Cc1ccc(OCCCCOc2ccc(CC(=O)NCCc3ccccc3)cc2)cc1 = 0.089

# log K of COc1cc(CC(=O)O)ccc1OCCCOc1ccc(CC(=O)N(C)CCc2ccccc2)cc1 = 0.013

# log K of Cc1ccc(CCN(C)C(=O)Cc2ccc(OCCCCOc3ccc(CC(=O)O)cc3)cc2)cc1 = 0.471

----------
Parameter 'readout' = IC50; parameter 'system' = Leukotriene B4 receptor (Homo sapiens, UniProt Q9NPC1+Q15722).
Answer with a number only, understood to be in nM.

>>> df
                                 mol_smiles  result_value
0  COc1cc(CC(=O)O)ccc1OCCCCOc1ccc(CC(=O)N(C)CCc2ccc(Br)cc2)cc1          1900
1  Cc1ccc(CCN(C)C(=O)Cc2ccc(OCCCCOc3ccc(CC(=O)O)cc3)cc2)cc1           660
2  CN(CCc1ccccc1)C(=O)Cc1ccc(OCCCCOc2ccc(CC(=O)O)cc2Cl)cc1          1200
3  CN(CCc1ccccc1)C(=O)Cc1ccc(OCCCOc2ccc(CC(=O)O)cc2Cl)cc1          2400
4  COc1cc(CC(=O)O)ccc1OCCCOc1ccc(CC(=O)N(C)CCc2ccccc2)cc1         67000

# IC50 of COc1cc(CC(=O)O)ccc1OCCCCOc1ccc(CC(=O)N(C)CCc2ccccc2)cc1 = 8600

# IC50 of Cc1cccc(CCN(C)C(=O)Cc2ccc(OCCCCOc3ccc(CC(=O)O)cc3)cc2)c1 = 1100
